Ref: ChEMBL document CHEMBL3826877

This listing pairs compounds with measured IC50.
Target: Cholinesterase (Homo sapiens, UniProt P06276)
Sequence (P06276 whole entry): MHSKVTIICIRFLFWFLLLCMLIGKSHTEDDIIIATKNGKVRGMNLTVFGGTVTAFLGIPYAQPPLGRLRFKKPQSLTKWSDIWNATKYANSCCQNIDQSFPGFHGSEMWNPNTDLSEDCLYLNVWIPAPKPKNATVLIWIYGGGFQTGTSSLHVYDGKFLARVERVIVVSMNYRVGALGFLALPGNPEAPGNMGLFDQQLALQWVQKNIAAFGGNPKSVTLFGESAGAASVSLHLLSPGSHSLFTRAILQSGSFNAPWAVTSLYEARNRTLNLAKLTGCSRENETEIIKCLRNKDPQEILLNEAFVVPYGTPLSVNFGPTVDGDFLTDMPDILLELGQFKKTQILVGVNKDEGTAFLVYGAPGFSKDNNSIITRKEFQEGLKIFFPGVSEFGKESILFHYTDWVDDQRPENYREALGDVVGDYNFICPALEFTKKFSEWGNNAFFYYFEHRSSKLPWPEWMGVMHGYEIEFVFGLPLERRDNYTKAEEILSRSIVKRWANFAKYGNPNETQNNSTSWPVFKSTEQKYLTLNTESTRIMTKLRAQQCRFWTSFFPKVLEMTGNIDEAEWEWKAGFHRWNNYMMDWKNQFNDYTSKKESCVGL
Assay: Inhibition of human serum BuChE using butyrylthiocholine iodide as substrate preincubated for 20 mins followed by substrate addition by Ellman's method
measured-parameter: IC50

1. CCCCCCCNC(=O)Oc1cccc(-n2cc(COc3ccc4ccc(=O)oc4c3)nn2)c1 :: 71.2 nM
2. CCCCCCCNC(=O)Oc1cccc(CN(C)CCCOc2ccc3ccc(=O)oc3c2)c1 :: 1.36 nM
3. CCCCCCCNC(=O)Oc1cccc(CN(C)CCCCCOc2ccc3c(c2)Oc2ncccc2C3)c1 :: 0.53 nM

---

Biological target: Fatty-acid amide hydrolase 1 (Rattus norvegicus, UniProt P97612)
Assay: Inhibition of FAAH in rat brain membrane using N-arachidonoyl-[14C]-ethanolamine as substrate preincubated for 20 mins followed by substrate addition measured after 30 mins by scintillation counting method
Type: cell membranes
pIC50: −log10 of the molar value.
Overview of reported pIC50 across a group of compounds:
measured-parameter: pIC50

1) CCCCCCCNC(=O)Oc1cccc(CN(C)CCCCCOc2ccc3c(c2)Oc2ncccc2C3)c1 :: 6.75
2) Cc1cc(=O)oc2cc(OCCCN(C)Cc3cccc(OC(=O)NCCCCCc4ccccc4)c3)ccc12 :: 6.87
3) CN(CCCOc1ccc2c(c1)oc(=O)c1ccccc12)Cc1cccc(OC(=O)NCCCCCc2ccccc2)c1 :: 6.51
4) CN(CCCOc1ccc2c3c(c(=O)oc2c1)CCCC3)Cc1cccc(OC(=O)NCCCCCc2ccccc2)c1 :: 5.86
5) CCCCCCCNC(=O)Oc1cccc(CN(C)CCCOc2ccc3ccc(=O)oc3c2)c1 :: 7.55
6) CN(CCCOc1ccc2cc(-c3ccc(Cl)cc3)c(=O)oc2c1)Cc1cccc(OC(=O)NCCCCCc2ccccc2)c1 :: 6.58
7) COc1ccc(-c2cc3cc(OCCCN(C)Cc4cccc(OC(=O)NCCCCCc5ccccc5)c4)ccc3oc2=O)cc1 :: 6.68
8) COc1ccc(-c2cc3ccc(OCCCN(C)Cc4cccc(OC(=O)NCCCCCc5ccccc5)c4)cc3oc2=O)cc1 :: 6.49
9) O=C(NCCCCCc1ccccc1)Oc1ccc(Cn2cc(COc3ccc4ccc(=O)oc4c3)nn2)cc1 :: 7.55
10) O=C(NCCCCCc1ccccc1)Oc1ccc(-n2cc(COc3ccc4ccc(=O)oc4c3)nn2)cc1 :: 7.36
11) O=C(NCCCCCc1ccccc1)Oc1cccc(Cn2cc(COc3ccc4ccc(=O)oc4c3)nn2)c1 :: 7.55
12) CN(CCCOc1ccc2cc(-c3ccccc3)c(=O)oc2c1)Cc1cccc(OC(=O)NCCCCCc2ccccc2)c1 :: 6.60
13) CCCCCCCNC(=O)Oc1cccc(CN(C)CCCOc2ccc3c4c(c(=O)oc3c2)CCCC4)c1 :: 6.51
14) CCCCCCCNC(=O)Oc1cccc(Cn2cc(COc3ccc4ccc(=O)oc4c3)nn2)c1 :: 7.49

---

Target: Fatty-acid amide hydrolase 1 (Rattus norvegicus)
Sequence (P97612 whole entry): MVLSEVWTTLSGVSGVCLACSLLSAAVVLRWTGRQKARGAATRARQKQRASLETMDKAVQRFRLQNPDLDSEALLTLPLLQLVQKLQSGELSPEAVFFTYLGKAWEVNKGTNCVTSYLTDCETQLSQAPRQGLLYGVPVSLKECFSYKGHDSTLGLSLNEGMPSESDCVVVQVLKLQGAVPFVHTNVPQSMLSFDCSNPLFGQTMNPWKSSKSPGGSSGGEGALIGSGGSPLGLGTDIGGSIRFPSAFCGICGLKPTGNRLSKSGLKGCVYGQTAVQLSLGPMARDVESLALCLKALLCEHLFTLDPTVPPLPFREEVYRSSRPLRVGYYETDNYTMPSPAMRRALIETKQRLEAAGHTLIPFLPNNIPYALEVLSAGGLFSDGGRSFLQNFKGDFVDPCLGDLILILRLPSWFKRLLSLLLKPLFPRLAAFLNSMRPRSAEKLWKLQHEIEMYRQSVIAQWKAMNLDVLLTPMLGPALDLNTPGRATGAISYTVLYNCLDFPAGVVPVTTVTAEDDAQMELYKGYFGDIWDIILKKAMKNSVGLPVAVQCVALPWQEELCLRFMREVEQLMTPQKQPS
Test: Inhibition of FAAH in rat brain membrane using N-arachidonoyl-[14C]-ethanolamine as substrate incubated for 30 mins by scintillation counting method
Format: cell membranes
pIC50: −log10 of the molar value.
measured-parameter: pIC50

1. CCCCCCCNC(=O)Oc1cccc(CN(C)CCCOc2ccc3c(=O)c4cccnc4oc3c2)c1 :: 5.50
2. CN(CCCCCOc1ccc2ccc(=O)oc2c1)Cc1cccc(OC(=O)NCCCCCc2ccccc2)c1 :: 6.10
3. COc1ccc(-c2cc3ccc(OCCCN(C)Cc4cccc(OC(=O)NCCCCCc5ccccc5)c4)cc3oc2=O)cc1 :: 5.63
4. O=C(NCCCCCc1ccccc1)Oc1ccc(Cn2cc(COc3ccc4ccc(=O)oc4c3)nn2)cc1 :: 6.95
5. CCCCCCCNC(=O)Oc1cccc(CN(C)CCCCCOc2ccc3c(c2)Oc2ncccc2C3)c1 :: 5.66
6. CN(CCCOc1ccc2cc(-c3ccc(Cl)cc3)c(=O)oc2c1)Cc1cccc(OC(=O)NCCCCCc2ccccc2)c1 :: 5.83
7. CCCCCCCNC(=O)Oc1cccc(Cn2cc(COc3ccc4ccc(=O)oc4c3)nn2)c1 :: 6.96
8. CN(CCCOc1ccc2ccc(=O)oc2c1)Cc1cccc(OC(=O)NCCCCCCc2ccccc2)c1 :: 5.75
